TEST SUMMARY: Pharmacokinetic profile in rats, subcutaneous
Assay type: in vivo
CONDITION: CD, Sprague Dawley, rat, sc, male rats, 1 mg/kg, plasma
MEASURED PROPERTY: AUC(0-t) (ng·h/mL)

[[record]]
molecule = "COc1cc2cccc(OC)c2cc1CC1NC(=O)[C@H](Cc2ccccc2)NC(=O)[C@@H]2C[C@@H](OC(=O)NCCN)CN2C(=O)[C@H](Cc2ccccc2)NC(=O)[C@H](Cc2ccc(OCc3ccccc3)cc2)NC(=O)[C@H](CCCCN)NC1=O (single isomer, unassigned)"
observed_result = 2730


###

TEST SUMMARY: Pharmacokinetic profile in rats, subcutaneous
Assay type: in vivo
CONDITION: CD, Sprague Dawley, rat, sc, male rats, 1 mg/kg, plasma
MEASURED PROPERTY: Cmax (ng/mL)

[[record]]
molecule = "COc1cc2cccc(OC)c2cc1CC1NC(=O)[C@H](Cc2ccccc2)NC(=O)[C@@H]2C[C@@H](OC(=O)NCCN)CN2C(=O)[C@H](Cc2ccccc2)NC(=O)[C@H](Cc2ccc(OCc3ccccc3)cc2)NC(=O)[C@H](CCCCN)NC1=O (single isomer, unassigned) [Example 5]"
observed_result = 224


###

TEST SUMMARY: Pharmacokinetic profile in rats, subcutaneous
Type: in vivo
CONDITION: Sprague Dawley (CD), rat, sc, male rats, 1 mg/kg, plasma, read-out: t½ (converted)
*1 amine or outer side, *2 acyl side, *3 side chain or, on linkers, in order; H or OH if unused. Where a SMILES comes first, the peptide text is derived from it. Side-chain parts run from the residue outwards. [ ]: non-standard residue; d: D form. The star is where a group is joined. Ethylenediamine = C(CN[*:2])N[*:1]; Hyp = O=C(O)[C@@H]1C[C@@H](O)CN1; Phg = N[C@H](C(=O)O)c1ccccc1; CO = O=C([*:1])[*:2]; Bn = c1ccc(C*)cc1
MEASURED PROPERTY: half-life (h)

[[record]]
compound = "NCCCC[C@@H]1NC(=O)[C@@H](Cc2c[nH]c3ccccc23)NC(=O)[C@H](c2ccccc2)NC(=O)[C@@H]2C[C@@H](OC(=O)NCCN)CN2C(=O)[C@H](Cc2ccccc2)NC(=O)[C@H](Cc2ccc(OCc3ccccc3)cc2)NC1=O [PASIREOTIDE, reference compound] (cyclo([Hyp]([CO-Ethylenediamine])[Phg][dW]KY(Bn)F))"
unit_tag = "h"
observed_result = 24.4


###

TEST SUMMARY: Pharmacokinetic profile in rats, subcutaneous
Type: in vivo
CONDITION: CD, Sprague Dawley, rat, sc, male rats, 1 mg/kg, plasma, read-out: t½ (converted)
MEASURED PROPERTY: half-life

[[record]]
compound = "COc1cc2cccc(OC)c2cc1CC1NC(=O)[C@H](Cc2ccccc2)NC(=O)[C@@H]2C[C@@H](OC(=O)NCCN)CN2C(=O)[C@H](Cc2ccccc2)NC(=O)[C@H](Cc2ccc(OCc3ccccc3)cc2)NC(=O)[C@H](CCCCN)NC1=O (single isomer, unassigned) [Example 5]"
observed_result = "31.3 h"


###

TEST TARGET: hSSTR2 (Homo sapiens)
Construct: expressed in transfected cells
Sequence (P30874 whole entry): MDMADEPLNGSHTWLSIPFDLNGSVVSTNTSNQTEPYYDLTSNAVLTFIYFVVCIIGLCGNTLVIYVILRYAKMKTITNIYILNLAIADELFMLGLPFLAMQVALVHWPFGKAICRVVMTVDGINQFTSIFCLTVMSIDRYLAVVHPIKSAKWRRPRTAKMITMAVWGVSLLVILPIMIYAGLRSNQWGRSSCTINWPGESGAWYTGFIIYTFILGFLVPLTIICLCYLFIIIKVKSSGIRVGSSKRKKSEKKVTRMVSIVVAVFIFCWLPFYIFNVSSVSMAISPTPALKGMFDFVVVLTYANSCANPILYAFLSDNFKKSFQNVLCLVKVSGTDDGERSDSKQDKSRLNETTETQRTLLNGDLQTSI
TEST SUMMARY: Binding assay, displacement of 3-[125I]iodotyrosyl11 Somatostatin-14
CONDITION: recombinant human receptor, cell membranes; 60 min at 25° C.; read-out: IC50 (nM) hSSTR2
MEASURED PROPERTY: IC50 (nM)

[[record]]
molecule = "COc1cc2cccc(OC)c2cc1CC1NC(=O)[C@H](Cc2ccccc2)NC(=O)[C@@H]2C[C@@H](OC(=O)NCCN)CN2C(=O)[C@H](Cc2ccccc2)NC(=O)[C@H](COCc2ccccc2)NC(=O)[C@H](CCCCN)NC1=O (single isomer, unassigned) [Example 15]"
observed_result = 7


###

TEST TARGET: hSSTR1 (Homo sapiens, UniProt P30872)
Construct: expressed in transfected cells
Sequence (P30872 whole entry): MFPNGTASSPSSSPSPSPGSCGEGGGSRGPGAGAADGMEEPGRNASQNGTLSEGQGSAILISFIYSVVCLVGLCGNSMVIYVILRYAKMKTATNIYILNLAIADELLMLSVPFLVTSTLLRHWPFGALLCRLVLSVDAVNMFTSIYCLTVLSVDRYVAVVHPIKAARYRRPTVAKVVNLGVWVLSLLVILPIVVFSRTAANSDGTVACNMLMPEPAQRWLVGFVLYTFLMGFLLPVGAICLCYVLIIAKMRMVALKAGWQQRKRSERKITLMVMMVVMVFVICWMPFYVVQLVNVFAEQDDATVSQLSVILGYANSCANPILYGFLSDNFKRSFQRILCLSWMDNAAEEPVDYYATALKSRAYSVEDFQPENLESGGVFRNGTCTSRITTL
TEST SUMMARY: Binding assay, displacement of 3-[125I]iodotyrosyl11 Somatostatin-14
CONDITION: recombinant human receptor, cell membranes; 60 min at 25° C.
Please assign false (0) whenever IC50 is at or above 10 nM, and true (1) whenever it is below.

[[record]]
molecule = "CNCCNC(=O)O[C@@H]1C[C@H]2C(=O)N[C@@H](Cc3ccccc3)C(=O)NC(Cc3cc4c(OC)cccc4cc3OC)C(=O)N[C@@H](CCCCN)C(=O)N[C@@H](Cc3ccc(OCc4ccccc4)cc3)C(=O)N[C@@H](Cc3ccccc3)C(=O)N2C1 (single isomer, unassigned)"
discrete_label = "true (1)"

[[record]]
molecule = "COc1cc(CC2NC(=O)[C@H](Cc3ccccc3)NC(=O)[C@@H]3C[C@@H](OC(=O)NCCN)CN3C(=O)[C@H](Cc3ccccc3)NC(=O)[C@H](Cc3ccc(OCc4ccccc4)cc3)NC(=O)[C@H](CCCCN)NC2=O)c(OC)c2ccccc12 (single isomer, unassigned) [Example 8]"
discrete_label = "false (0)"

[[record]]
molecule = "COc1cc2cccc(OC)c2cc1CC1NC(=O)[C@H](Cc2ccccc2)NC(=O)[C@@H]2C[C@@H](OC(=O)NCCN)CN2C(=O)[C@H](Cc2ccccc2)NC(=O)[C@H](COCc2ccccc2)NC(=O)[C@H](CCCCN)NC1=O (single isomer, unassigned)"
discrete_label = "true (1)"

[[record]]
molecule = "COc1cc(CC2NC(=O)[C@H](Cc3ccccc3)NC(=O)[C@@H]3C[C@@H](OC(=O)NCCN)CN3C(=O)[C@H](Cc3ccccc3)NC(=O)[C@H](Cc3ccc(OCc4ccccc4)cc3)NC(=O)[C@H](CCCCN)NC2=O)c(OC)c2ccccc12 (single isomer, unassigned) [Example 9]"
discrete_label = "false (0)"

[[record]]
molecule = "COc1cc2cccc(OC)c2cc1CC1NC(=O)[C@H](Cc2ccccc2)NC(=O)[C@@H]2C[C@@H](OC(=O)NCCN)CN2C(=O)[C@H](Cc2ccccc2)NC(=O)[C@H](Cc2ccc(OCc3ccccc3)cc2)NC(=O)[C@H](CCCCN)NC1=O (single isomer, unassigned)"
discrete_label = "false (0)"


###

TEST SUMMARY: Pharmacokinetic profile in rats, subcutaneous
Assay type: in vivo
CONDITION: CD, Sprague Dawley, rat, sc, male rats, 1 mg/kg, plasma
MEASURED PROPERTY: AUC

[[record]]
molecule = "COc1cc2cccc(OC)c2cc1CC1NC(=O)[C@H](Cc2ccccc2)NC(=O)[C@@H]2C[C@@H](OC(=O)NCCN)CN2C(=O)[C@H](Cc2ccccc2)NC(=O)[C@H](Cc2ccc(OCc3ccccc3)cc2)NC(=O)[C@H](CCCCN)NC1=O (single isomer, unassigned)"
measured_property = "AUC"
observed_result = "2880 ng·h/mL"


###

TEST TARGET: hSSTR3 (Homo sapiens, UniProt P32745)
Construct: expressed in transfected cells
Sequence (P32745 whole entry): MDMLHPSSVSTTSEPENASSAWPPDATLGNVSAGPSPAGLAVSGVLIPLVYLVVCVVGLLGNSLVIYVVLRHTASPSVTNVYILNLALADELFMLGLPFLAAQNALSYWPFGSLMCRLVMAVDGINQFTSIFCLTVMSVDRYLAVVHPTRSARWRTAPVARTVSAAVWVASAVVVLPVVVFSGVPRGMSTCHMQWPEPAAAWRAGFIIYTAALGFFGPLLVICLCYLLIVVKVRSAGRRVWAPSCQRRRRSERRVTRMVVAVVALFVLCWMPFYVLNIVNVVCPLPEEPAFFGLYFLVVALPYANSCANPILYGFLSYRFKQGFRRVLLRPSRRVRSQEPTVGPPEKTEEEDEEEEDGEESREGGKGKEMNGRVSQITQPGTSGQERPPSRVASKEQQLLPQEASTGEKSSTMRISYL
TEST SUMMARY: Binding assay, displacement of 3-[125I]iodotyrosyl11 Somatostatin-14
CONDITION: recombinant human receptor, cell membranes; 60 min at 25° C.; read-out: IC50 (nM) hSSTR3
MEASURED PROPERTY: IC50 (nM)

[[record]]
compound = "COc1cc(CC2NC(=O)[C@H](Cc3ccccc3)NC(=O)[C@@H]3C[C@@H](OC(=O)NCCN)CN3C(=O)[C@H](Cc3ccccc3)NC(=O)[C@H](Cc3ccc(OCc4ccccc4)cc3)NC(=O)[C@H](CCCCN)NC2=O)c(OC)c2ccccc12 (single isomer, unassigned) [Example 8]"
observed_result = 2.92


###

TEST SUMMARY: Pharmacokinetic profile in rats, subcutaneous
Format: in vivo
CONDITION: Sprague Dawley (CD), rat, sc, male rats, 1 mg/kg, plasma
*1 amine or outer side, *2 acyl side, *3 side chain or, on linkers, in order; H or OH if unused. Where a SMILES comes first, the peptide text is derived from it. Side-chain parts run from the residue outwards. [ ]: non-standard residue; d: D form. The star is where a group is joined. Ethylenediamine = C(CN[*:2])N[*:1]; Hyp = O=C(O)[C@@H]1C[C@@H](O)CN1; Phg = N[C@H](C(=O)O)c1ccccc1; CO = O=C([*:1])[*:2]; Bn = c1ccc(C*)cc1
MEASURED PROPERTY: AUC (ng·h/mL)

[[record]]
molecule = "NCCCC[C@@H]1NC(=O)[C@@H](Cc2c[nH]c3ccccc23)NC(=O)[C@H](c2ccccc2)NC(=O)[C@@H]2C[C@@H](OC(=O)NCCN)CN2C(=O)[C@H](Cc2ccccc2)NC(=O)[C@H](Cc2ccc(OCc3ccccc3)cc2)NC1=O [PASIREOTIDE, reference compound] (cyclo([Hyp]([CO-Ethylenediamine])[Phg][dW]KY(Bn)F))"
observed_result = 2800


###

TEST SUMMARY: Pharmacokinetic profile in rats, subcutaneous
Format: in vivo
CONDITION: CD, Sprague Dawley, rat, sc, male rats, 1 mg/kg, plasma
MEASURED PROPERTY: MRT (h)

[[record]]
compound = "COc1cc2cccc(OC)c2cc1CC1NC(=O)[C@H](Cc2ccccc2)NC(=O)[C@@H]2C[C@@H](OC(=O)NCCN)CN2C(=O)[C@H](Cc2ccccc2)NC(=O)[C@H](Cc2ccc(OCc3ccccc3)cc2)NC(=O)[C@H](CCCCN)NC1=O (single isomer, unassigned) [Example 5]"
observed_result = 19

